Molecular target: RIPK1 (Homo sapiens, UniProt Q13546)
Sequence (Q13546 1-671): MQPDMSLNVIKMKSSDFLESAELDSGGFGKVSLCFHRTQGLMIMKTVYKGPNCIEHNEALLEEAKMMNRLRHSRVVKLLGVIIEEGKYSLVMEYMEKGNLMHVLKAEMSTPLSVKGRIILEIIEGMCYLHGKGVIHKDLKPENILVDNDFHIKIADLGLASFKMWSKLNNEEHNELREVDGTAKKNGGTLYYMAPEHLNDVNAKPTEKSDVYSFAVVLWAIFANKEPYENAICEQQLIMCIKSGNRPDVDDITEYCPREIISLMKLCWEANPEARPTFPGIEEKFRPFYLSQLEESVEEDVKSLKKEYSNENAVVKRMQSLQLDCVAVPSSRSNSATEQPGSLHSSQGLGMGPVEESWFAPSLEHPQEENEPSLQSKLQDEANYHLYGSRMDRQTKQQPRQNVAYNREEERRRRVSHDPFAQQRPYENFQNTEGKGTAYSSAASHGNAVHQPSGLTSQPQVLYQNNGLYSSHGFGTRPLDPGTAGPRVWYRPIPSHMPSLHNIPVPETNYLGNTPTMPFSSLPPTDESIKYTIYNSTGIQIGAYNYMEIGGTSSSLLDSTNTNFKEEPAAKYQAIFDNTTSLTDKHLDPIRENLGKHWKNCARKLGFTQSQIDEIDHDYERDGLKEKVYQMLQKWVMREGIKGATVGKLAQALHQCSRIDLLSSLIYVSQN
Test: RIPK1 ADP-Glo biochemical kinase assay
Details: read-out: RIPK1 ADP-Glo Kinase (IC50)
metric: pIC50
Schema: pIC50 number; meaning minus log10 of the concentration expressed in molar units.

Examples from the recorded data:
# smiles input, metric, data value
rows = [
    ("Cc1cccc(Cc2cnn(C(=O)N[C@H]3CCc4ccc(C#CC(C)(C)O)cc4N(C)C3=O)c2)n1", "pIC50", 7.77),
    ("Cc1noc(C)c1Cc1ccnc(C(=O)N[C@H]2COc3ccc(C#CC4(O)COC4)cc3N(C)C2=O)c1", "pIC50", 6.49),
    ("CN1C(=O)[C@@H](NC(=O)c2cc(Oc3cnn(C)c3)ccn2)COc2ccc(C#CC(C)(C)O)cc21", "pIC50", 7.82),
    ("CN1C(=O)[C@@H](NC(=O)c2cc(Oc3cccnc3F)ccn2)COc2ccc(C#CC3CCOCC3)cc21", "pIC50", 7.63),
]

Request body: readout pIC50, system RIPK1 (Homo sapiens, UniProt Q13546), query "CN1C(=O)[C@@H](NC(=O)c2cc(Cn3cccn3)ccn2)COc2ccc(C#CC3(O)COC3)cc21" . Return the value.
7.35

And then "CN1C(=O)[C@@H](NC(=O)c2cc(Oc3cncc(F)c3)ccn2)COc2ccc(C#CC3(O)COC3)cc21" , what is it?
7.80

Another compound: "CN1C(=O)[C@@H](NC(=O)n2cc(Cc3cccc(F)n3)cn2)CCc2ccc(C#CC(C)(C)CO)cc21"
7.55

// next record "CN1C(=O)[C@@H](NC(=O)c2cc(Oc3cnn(C)c3)ccn2)COc2ccc(C#CC3(O)COC3)cc21"
7.82

Same question for "Cc1ccc(Cc2cnn(C(=O)N[C@H]3COc4ccc(C#CC(C)(C)O)cc4N(C)C3=O)c2)cn1" please.
7.71

Input "CN1C(=O)[C@@H](NC(=O)n2cc(Cc3cccnc3F)cn2)COc2ccc(C#CC3(O)COC3)cc21"
7.76

Quick one: "CN1C(=O)[C@@H](NC(=O)n2cc(Cc3cccc(F)n3)cn2)COc2ccc(C#CC3CCOCC3)cc21"
7.82

Similarly, "CN1C(=O)[C@@H](NC(=O)c2cc(Oc3cccnc3F)ccn2)COc2ccc(C#CC3(O)CCC3)cc21" ?
7.72

Same again, this time with "CN1C(=O)[C@@H](NC(=O)n2cc(Oc3cccc(F)n3)cn2)COc2ccc(Br)cc21"
5.19

---

target: RIPK1 (Homo sapiens); experiment: RIPK1 ADP-Glo biochemical kinase assay; settings: read-out: RIPK1 ADP-Glo Kinase (IC50)
metric: pIC50
Convention used: pIC50 is expressed as -log10 of the molar concentration.

Observe how each entry below is paired with its result.
# smiles input, data value
data = [
    ("CN1C(=O)[C@@H](NC(=O)n2cc(Oc3cccc(F)n3)cn2)COc2ccc(C#CC(C)(C)O)cc21", 7.09),
    ("CN1C(=O)[C@@H](NC(=O)n2cc(Cc3cccc(C(F)(F)F)n3)cn2)COc2ccc(C#CC(C)(C)O)cc21", 7.19),
    ("CN1C(=O)[C@@H](NC(=O)c2cc(Cc3cccnc3F)ccn2)COc2ccc(C#CC3(O)COC3)cc21", 7.45),
]

Entry under review: "Cc1ccc(Oc2ccnc(C(=O)N[C@H]3COc4ccc(C#CC5(O)COC5)cc4N(C)C3=O)c2)cn1" . Reported pIC50?
7.54

Cool, now "CN1C(=O)[C@@H](NC(=O)n2cc(Cc3cccc(F)n3)cn2)COc2ccc(C#CC(C)(C)C3CCOCC3)cc21"
7.27

Same question for "CN1C(=O)[C@@H](NC(=O)n2cc(Cc3cccc(F)n3)cn2)COc2ccc(C#CC3(O)CCOCC3)cc21" please.
7.77

What would you report for "CN1C(=O)[C@@H](NC(=O)c2cc(Cc3cccc(F)n3)ccn2)COc2ccc(C#CC3CCOCC3)cc21" ?
7.45

---

biological target: UniProt Q13546; experiment: RIPK1 ADP-Glo biochemical kinase assay; details: read-out: RIPK1 ADP-Glo Kinase (IC50)
metric: pIC50
# reply with the number alone; pIC50 is -log10 of concentration in mol/L

# smiles input, pIC50
rows = [
    ("Cc1cccc(Cc2ccnc(C(=O)N[C@H]3COc4ccc(C#CC5(O)COC5)cc4N(C)C3=O)c2)n1", 7.60),
    ("CN1C(=O)[C@@H](NC(=O)c2cc(Oc3cnn(C)c3)ccn2)COc2ccc(C#CC3CCOCC3)cc21", 8.11),
    ("Cc1noc(C)c1Cc1ccnc(C(=O)N[C@H]2COc3ccc(C#CC(C)(C)O)cc3N(C)C2=O)c1", 6.33),
]

Which value of pIC50 has been reported for "CN1C(=O)[C@@H](NC(=O)c2cc(Oc3cccnc3C#N)ccn2)COc2ccc(C#CC(C)(C)O)cc21" in the records?
7.00

And then "CN1C(=O)[C@@H](NC(=O)n2cc(Cc3ncccn3)cn2)COc2ccc(Br)cc21" , what is it?
6.32

Please give the result for "CN1C(=O)[C@@H](NC(=O)c2cc(Cc3cccc(C#N)n3)ccn2)COc2ccc(C#CC3(O)COC3)cc21" too.
7.74

Would you mind doing "CN1C(=O)[C@@H](NC(=O)c2cc(Cc3cccnc3F)ccn2)COc2ccc(C#CC3COC3)cc21" as well?
7.78

Note, next up: "CN1C(=O)[C@@H](NC(=O)c2cc(Oc3cncc(F)c3)ccn2)COc2ccc(C#CC(C)(C)C)cc21"
7.26

---

Molecular target: RIPK1 (Homo sapiens, UniProt Q13546)
Sequence (Q13546 1-671): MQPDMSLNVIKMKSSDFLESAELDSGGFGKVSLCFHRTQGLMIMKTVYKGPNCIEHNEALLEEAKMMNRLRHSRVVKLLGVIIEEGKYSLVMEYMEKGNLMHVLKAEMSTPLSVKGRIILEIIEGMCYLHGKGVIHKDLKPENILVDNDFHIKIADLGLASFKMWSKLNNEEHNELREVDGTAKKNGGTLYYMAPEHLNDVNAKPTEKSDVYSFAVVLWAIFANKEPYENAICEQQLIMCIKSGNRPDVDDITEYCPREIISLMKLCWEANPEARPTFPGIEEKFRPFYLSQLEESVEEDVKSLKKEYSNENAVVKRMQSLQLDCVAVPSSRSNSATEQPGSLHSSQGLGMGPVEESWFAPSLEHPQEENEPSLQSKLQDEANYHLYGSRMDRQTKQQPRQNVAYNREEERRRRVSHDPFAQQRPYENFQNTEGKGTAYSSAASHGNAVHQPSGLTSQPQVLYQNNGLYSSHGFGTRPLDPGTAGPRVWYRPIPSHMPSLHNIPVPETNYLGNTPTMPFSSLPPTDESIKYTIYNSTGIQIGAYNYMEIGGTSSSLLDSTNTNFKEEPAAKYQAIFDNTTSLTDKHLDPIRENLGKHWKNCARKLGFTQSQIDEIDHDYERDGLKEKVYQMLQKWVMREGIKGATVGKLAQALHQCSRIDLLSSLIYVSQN
Assay: RIPK1 ADP-Glo biochemical kinase assay
Settings: read-out: RIPK1 ADP-Glo Kinase (IC50)
metric: IC50 (µM)
Give just the numeric value; µM need not be written.

# molecule, target entity, unit of measure, IC50
records = [
    ("CN1C(=O)[C@@H](NC(=O)n2cc(Cc3ccc(F)nc3F)cn2)COc2ccc(C#CC(C)(C)O)cc21 [I-50]", "RIPK1 (Homo sapiens, UniProt Q13546)", "µM", 0.181),
    ("CN1C(=O)[C@@H](NC(=O)c2cc(Cc3cccnc3)ccn2)COc2ccc(C#CC3(O)COC3)cc21 [I-62]", "RIPK1 (Homo sapiens, UniProt Q13546)", "µM", 0.0215),
    ("CN1C(=O)[C@@H](NC(=O)c2cc(Oc3cccnc3C(F)(F)F)ccn2)COc2ccc(C#CC(C)(C)O)cc21 [I-87]", "RIPK1 (Homo sapiens, UniProt Q13546)", "µM", 0.0513),
]

Can you share its IC50? I mean this molecule: CN1C(=O)[C@@H](NC(=O)c2cc(Oc3ccccn3)ccn2)COc2ccc(C#CC3(O)COC3)cc21 [I-129]
2.28

And the next one, CN1C(=O)[C@@H](NC(=O)n2cc(Cc3cccc(F)n3)cn2)CCc2ccc(C#CC3(O)CCOCC3)cc21 [I-116] ?
0.0129

Likewise for CN1C(=O)[C@@H](NC(=O)c2cc(Cc3csc(C(F)(F)F)n3)ccn2)COc2ccc(C#CC(C)(C)O)cc21 [I-123] ?
0.02

Same question, CN1C(=O)[C@@H](NC(=O)c2cc(Oc3cccnc3F)ccn2)COc2ccc(C#CC3COC3)cc21 [I-55] this time
0.0143
